The origin of these recorded values is PubChem BioAssay (NCI).

System: SF-539 CNS
Assay: NCI-60 one-dose screen, 48 h
Settings: 10 µM unless noted
About 83,000 compounds went through this panel and 20% of them were active in at least one assay; those are over-represented in the sample as a whole. The source made the active and inactive calls. Rule for the calls: active = growth percent below 10; inactive = the rest.
Classes to choose from: yes (active), no (inactive)

Answered examples (4):
compound	classification
CN1CCc2c(sc3ncnc(N/N=C/c4cccc(Cl)c4Cl)c23)C1	yes
Oc1ccc(Cl)c(Nc2ncnc3c2cnn3CC(Cl)c2ccc(Br)cc2)c1 (stereo not given)	no
COc1ccccc1/C=C/c1cccc(NC(=S)NCCCCN(C)C)c1	yes
COC(=O)c1cc(C(=O)C(F)(F)F)n2c3ccccc3c3ccccc3c12	no

IN: Please share the test call associated with COc1ccc2nc(NC(=O)c3ccc(N(C)C)cc3)sc2c1 .
OUT: no

IN: Please share the test call associated with Cc1ccc2c(c1)/C(=C/C(=O)c1cc3ccccc3oc1=O)C(=O)N2 .
OUT: no

IN: Please share the test call associated with Cc1cc(C)c2[nH]c(=O)c(C(c3nnnn3Cc3ccc4c(c3)OCO4)N3CCN(C)CC3)cc2c1 (stereo not given) .
OUT: no
